Item-by-item account of Fold change to WT CD80
target: human CTLA-4 (human) (UniProt P16410); experiment: flow cytometry, CHO cells stably expressing CTLA4
Sequence (P16410 36-223): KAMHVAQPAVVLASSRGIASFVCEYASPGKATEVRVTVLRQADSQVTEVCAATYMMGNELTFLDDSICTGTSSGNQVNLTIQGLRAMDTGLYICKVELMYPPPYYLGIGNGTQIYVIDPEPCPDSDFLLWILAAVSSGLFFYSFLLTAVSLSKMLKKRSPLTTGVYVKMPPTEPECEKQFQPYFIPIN
Number in fold, nothing else.

>  <Binder>
variant CD80 IgV-Fc A26E/V68M/A71G/D90G (Fc fusion) VIHVTKEVKEVATLSCGHNVSVEELEQTRIYWQKEKKMVLTMMSGDMNIWPEYKNRTIFDITNNLSIMILGLRPSDEGTYECVVLKYEKGAFKREHLAEVTLSVKAD

>  <Experimental value>
6.4

$$$$

**Q:** Any idea what its Fold change to WT CD80 is? The binder is variant CD80 IgV-Fc A26E/M47L/A71G/D90G (Fc fusion) VIHVTKEVKEVATLSCGHNVSVEELEQTRIYWQKEKKMVLTMMSGDLNIWPEYKNRTIFDITNNLSIVILGLRPSDEGTYECVVLKYEKGAFKREHLAEVTLSVKAD
**A:** 16.2

Values from patent US20220177587A1
